# ASSAY_SYSTEM: PEG-3 (UniProt Q6IN02)
# Sequence (Q6IN02 whole entry, looked up): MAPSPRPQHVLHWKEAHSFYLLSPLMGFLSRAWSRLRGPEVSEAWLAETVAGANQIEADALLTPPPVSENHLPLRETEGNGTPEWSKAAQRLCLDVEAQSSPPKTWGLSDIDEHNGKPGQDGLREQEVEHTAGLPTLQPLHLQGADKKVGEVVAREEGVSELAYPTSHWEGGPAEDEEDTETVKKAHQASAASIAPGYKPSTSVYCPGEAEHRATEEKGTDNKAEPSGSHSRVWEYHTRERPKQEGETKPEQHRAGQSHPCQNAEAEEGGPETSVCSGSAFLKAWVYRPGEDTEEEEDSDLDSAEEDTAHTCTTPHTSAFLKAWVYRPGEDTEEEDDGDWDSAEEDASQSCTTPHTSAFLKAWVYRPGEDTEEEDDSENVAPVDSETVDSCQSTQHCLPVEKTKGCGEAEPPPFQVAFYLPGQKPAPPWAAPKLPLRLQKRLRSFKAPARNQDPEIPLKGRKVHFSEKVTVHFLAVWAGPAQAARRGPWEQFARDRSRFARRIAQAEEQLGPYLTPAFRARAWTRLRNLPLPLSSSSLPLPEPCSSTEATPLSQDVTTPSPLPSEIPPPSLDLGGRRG
# TEST: Peg3 promoter luciferase inhibitors, potency, dose response, cell-based, HeLa, CREF/GAPDH counter-screen panel (AID 624167)
# RECORDED_CONDITIONS: CREF/GAPDH counter-screens; HeLa PEG-Prom luciferase reporter, overnight, run 2, dose range 1, at 100 µM (top of the series) unless noted
Assign inhibition to each entry below.
The reply should contain only the number, in %.

Identify the reported inhibition for the following entry. Cc1ccccc1-c1nc(-c2ccccn2)no1 92

Return the recorded inhibition value; entry: C(=NNc1ccc2ccccc2n1)c1ccccn1 102

Assign inhibition to the following record: CCc1nc(Nc2ccc(N3CCN(C(C)=O)CC3)cc2)c2oc3ccccc3c2n1 99.9

For the molecule CCC1=C(CC2NCCc3ccccc32)CC2c3cc(OC)c(OC)cc3CCN2C1 (configuration not stated) , give its measured inhibition value. 99

Give reported inhibition value for Cc1ccc(-c2cc(C(=O)Nc3nccs3)c3ccccc3n2)c(C)c1 56.2

Indicate the recorded inhibition value for this molecule: CCN1CCN(CCNC(=O)c2ccc(/C=C3\Sc4ccccc4N(Cc4ccccc4F)C3=O)cc2)CC1 101

Give inhibition for the following molecule: Cc1ccccc1NC(=O)Nc1nc(C(N)C2CCCCC2)cs1 (configuration not stated) 99.7

Report inhibition, nothing else, for this molecule: CCC(C)NCCOCCOc1ccc(Cl)c2ccccc12 (configuration not stated) 98.8

Look up inhibition of Cc1cc(Sc2ncnc(N)c2[N+](=O)[O-])ncn1 and report it. 102

Give the reported inhibition for this molecule. CC(C)n1cc(CN2CCC(C(=O)Nc3cccc(-c4cccc(Cl)c4)c3)CC2)cn1 101

Please report inhibition for the following molecule: CCCn1nc(C(=O)Nc2nc(-c3ccccn3)cs2)c2ccccc2c1=O 80.4

Fill in inhibition for record O=Nc1c(O)ccc2cc(S(=O)(=O)O)ccc12 89.5

Note down inhibition recorded for Cc1cc(C)c2sc(NNC(=O)c3ccc(S(=O)(=O)N4CCc5ccccc5C4)cc3)nc2c1 94.7

Could you please provide reported inhibition for Cc1ccc2nc(NC(=O)c3ccccn3)sc2c1 ? Thanks! 98.6

Fill in reported inhibition for this entry: CC1(C)CC(NC(=O)c2cccc(S(=O)(=O)N(Cc3ccccc3)c3ccccc3)c2)CC(C)(C)N1 102

Entry CCCCCN1C=CC(=C2C(=O)c3ccccc3C2=O)C=C1 needs its inhibition filled in; supply it. 99.1

Answer with reported inhibition of Cc1cccc(CS(=O)(=O)c2ncc(Cl)c(C(=O)Nc3ccc(F)cc3)n2)c1 98.3

Give a short answer stating reported inhibition for O=C(Nc1ncc([N+](=O)[O-])s1)c1ccc2c(c1)OCO2 . 89.6

Tell me inhibition reported for CN(CC(=O)Nc1ccc(Cl)c(C(F)(F)F)c1)C(=O)c1cc(-c2ccncc2)nc2ccccc12 98.9

State, in one line, measured inhibition of Cc1cc(C(=O)COC(=O)C2=COCCO2)c(C)n1-c1ccccc1 101

Consider the molecule COc1cccc(C(=O)O/N=C(\N)c2ccccn2)c1 and give its recorded inhibition. 95.8

# return recorded inhibition for input NCCc1c(-c2ccccc2)n(-c2ccccc2)c2ccccc12 102

----------
# ASSAY_SYSTEM: PEG-3 (UniProt Q6IN02)
# TEST: Peg3 promoter luciferase inhibitors, potency, dose response, cell-based, HeLa, CREF/GAPDH counter-screen panel (AID 624167)
# RECORDED_CONDITIONS: CREF/GAPDH counter-screens; HeLa PEG-Prom luciferase reporter, overnight, run 1, dose range 1, at 100 µM (top of the series) unless noted
Provide the recorded inhibition for the entries that follow.
Record the value in %, omitting the unit from your answer.

Using known records, supply inhibition for CCc1nc(Sc2nnnn2-c2ccccc2)c2c3c(sc2n1)CCCC3 68.7

Write down inhibition measured for item O=C(NC1=C(NC2CCS(=O)(=O)C2)C(=O)c2ccccc2C1=O)c1ccccc1 (configuration not stated) 102

State its inhibition for this compound: O=C(O)c1ccc(N/N=C/c2ccc(OC(=O)c3cccc(Cl)c3)cc2)cc1 101

Item O=[N+]([O-])c1ccc(S(=O)(=O)c2ccccc2)nc1 : provide inhibition 99.3

Consider the compound O=C(Nc1ccccn1)c1cc2ccccc2o1 . State its measured inhibition. 82.3

Identify measured inhibition corresponding to Cc1cc(-n2c(SCC(=O)Nc3ccc(F)c(F)c3)nc3n[nH]c(C)c3c2=N)ccc1Cl 100

Using known records, supply inhibition for CN(C)CCNc1ccc2nnn3c4ccc(O)cc4c(=O)c1c23 102

Output inhibition of COc1ccc(Nc2ncnc3ccc(Br)cc23)c(OC)c1 88.3

# return recorded inhibition for entry NC(c1csc(Nc2nccc(C(F)(F)F)n2)n1)C1CCCCC1 (configuration not stated) 98.2

Tell me its inhibition given C=C(C)Cn1c(SCC(=O)N/N=C/c2c(O)ccc3ccccc23)nc2ccccc2c1=O as the entry. 54.6

Dear colleague, please send me the reported inhibition for Cc1ccc(/C=C2\SC(=S)N(CCCC(=O)Nc3ccccn3)C2=O)cc1 when you can. 88

Indicate the recorded inhibition value for this compound: COc1ccccc1C1c2ccc3ccccc3c2Oc2ncn(CCCO)c(=N)c21 (configuration not stated) 102

Entry c1ccc(-c2nc(-c3ccccn3)no2)cc1 needs its inhibition filled in; supply it. 89.5

Respond only with inhibition recorded for Cc1cnc(NC(=O)C2CC(=O)N(c3cccc(Cl)c3)C2)s1 (configuration not stated) 97.7

Read the entry CC1(Cc2ccc(Cl)c(Cl)c2)C(=O)Nc2ccc(S(=O)(=O)NC3CCCCC3)cc21 (configuration not stated) and write its reported inhibition. 92.8

Report inhibition for COc1cccc(C(=O)O/N=C(\N)c2ccccn2)c1 102

Supply recorded inhibition for COc1cc(-c2cc(C(=O)Nc3cc(S(=O)(=O)N4CCOCC4)ccc3C)c3ccccc3n2)cc(OC)c1OC here. 55.1

Indicate the recorded inhibition value for this compound: CN(C)c1ccc(N=Nc2nc3ccccc3n2C)cc1 98.1

Answer with the recorded inhibition for the compound listed here: CC(C)(C)c1ccc(C(=O)O/N=C(\N)c2ccccn2)cc1 102

Kindly indicate its recorded inhibition. Item: CN(C)CCNC(=O)c1sc2nc(-c3ccccc3)cc(C(F)(F)F)c2c1N 102

Report inhibition, nothing else, for this compound: CCCCCCCn1c(=N)n(CC(=O)c2ccco2)c2ccccc21 102

Let me know recorded inhibition for CN(C)c1ccc(/C=C2\SC(=O)N(CCc3nnc(N)s3)C2=O)cc1 , thanks. 62

----------
# ASSAY_SYSTEM: Tumor necrosis factor receptor superfamily member 10B (Homo sapiens) (UniProt O14763)
# Sequence (O14763 whole entry, looked up): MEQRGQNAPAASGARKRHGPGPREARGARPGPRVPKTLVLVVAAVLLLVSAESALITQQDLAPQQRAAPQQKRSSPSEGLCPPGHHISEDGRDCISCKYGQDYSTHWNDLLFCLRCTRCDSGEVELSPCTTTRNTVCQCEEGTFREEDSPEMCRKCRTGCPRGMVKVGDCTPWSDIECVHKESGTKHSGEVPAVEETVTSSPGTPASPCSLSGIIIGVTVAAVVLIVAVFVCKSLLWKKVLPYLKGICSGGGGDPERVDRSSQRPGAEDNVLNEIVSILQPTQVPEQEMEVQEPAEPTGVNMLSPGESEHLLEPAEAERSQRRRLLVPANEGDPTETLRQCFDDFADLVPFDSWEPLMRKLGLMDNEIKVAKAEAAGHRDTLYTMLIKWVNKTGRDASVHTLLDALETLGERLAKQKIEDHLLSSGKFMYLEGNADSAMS
# TEST: caspase-8 TRAIL sensitization, hit retest, confirmation, cell-based, NB7+caspase-8, with/without TRAIL, luminescence panel (AID 651596)
# RECORDED_CONDITIONS: NB7 neuroblastoma + caspase-8, TRAIL sensitization, luminescence viability, with TRAIL, mean of runs, at 10 µM, stronger effect = higher value
For each entry below, report its activity value.
Answer format: numeric, % implied, no suffix.

Answer with activity of CCOC(=O)c1c(NC(=O)COc2ccccc2OCC)sc2c1CC(C)(C)NC2(C)C measured for Tumor necrosis factor receptor superfamily member 10B (Homo sapiens) (UniProt O14763). 95.8

Give reported activity for CC(C)(C)OC(=O)NCc1ccc(NC(=O)c2nc[nH]c2C(=O)NCCCCNC(=O)c2[nH]cnc2C(=O)Nc2ccc(CNC(=O)OC(C)(C)C)cc2)cc1 (Tumor necrosis factor receptor superfamily member 10B (Homo sapiens) (UniProt O14763)) 95.1

Determine reported activity for Nc1ccc(-c2nc3ncccc3o2)c(Cl)c1 ; test system: Tumor necrosis factor receptor superfamily member 10B (Homo sapiens) (UniProt O14763). 43.9

Please report the measured activity for CCOC(=O)c1ccc(NC(=O)c2ccc(C)c(S(=O)(=O)N3CCOCC3)c2)cc1 tested on Tumor necrosis factor receptor superfamily member 10B (Homo sapiens) (UniProt O14763). 79.3

Report value only: activity, Tumor necrosis factor receptor superfamily member 10B (Homo sapiens) (UniProt O14763), O=C(/C=C/c1cccnc1)/C=C/c1cccnc1 91.5

Give activity for COc1ccc(/C=C/C(=O)c2c(O)cc(C)oc2=O)c(OC)c1 tested on Tumor necrosis factor receptor superfamily member 10B (Homo sapiens) (UniProt O14763). 91.1

----------
# System: Rat fibroblasts (CREF)
# TEST: Peg3 promoter luciferase inhibitors, potency, dose response, cell-based, HeLa, CREF/GAPDH counter-screen panel (AID 624167)
# RECORDED_CONDITIONS: CREF/GAPDH counter-screens; run 2, dose range 1, at 100 µM (top of the series)
RESULT_TYPE: inhibition (%)
All answers are understood in %, so give the number only.

Give reported inhibition value for Clc1cccc(-c2nc(-c3ccccn3)no2)c1 94.4

Return inhibition (reported value) for this compound: O=C(O)c1cccc(COc2ccc(CO)cc2Cl)c1 91.1

Please give measured inhibition of the following entry: COc1ccc(NC(=O)c2cc(-c3ccccn3)nc3ccccc23)cc1S(=O)(=O)N(C)C -6.75

Please give measured inhibition of the following entry: COc1cc(CNCCCN2CCOCC2)cc(Br)c1OCc1ccc(Cl)cc1 99.1

Give recorded inhibition. O=c1c2ccccc2sc2nc(CCl)nn12 33.8

Report measured inhibition; entry is Cc1c(C)c2ccc(OCC(=O)Nc3ccccn3)c(C)c2oc1=O 97.8

Please indicate inhibition recorded for COc1ccc2c(c1)c(=Cc1ccc(N(C)C)cc1)c1cc(-c3ccccc3)[n+](C)n12 100

Write down inhibition measured for item CS(=O)(=O)c1ccc(-c2sc3ccccc3c2C#CCCO)cc1 95.7

Please report inhibition for the following compound: O=C(CNCCC1=CCCCC1)Nc1ccc(N2CCCCCC2)cc1 100

Return value of inhibition for input N=c1n(CCN2CCCCC2)c2ccccc2n1CC(O)c1ccc(Cl)c(Cl)c1 (centres undefined) , no commentary. 99.7

For the compound CS(=O)(=O)Nc1cccc(NC(=O)C2Cc3c(-c4cccc(F)c4)ccnc3O2)c1 (centres undefined) , report inhibition. 29

// fetch inhibition given entry Cc1cccc(CS(=O)(=O)c2ncc(Cl)c(C(=O)Nc3ccc(F)cc3)n2)c1 96.3

Note inhibition for the compound shown: CCOc1ccc2c(ccc(/C=C/c3cc(C)c4cccnc4c3O)[n+]2C)c1 98.5

Please give measured inhibition of the following entry: O=c1cnnc(N/N=C/c2ccccn2)[nH]1 51.1

Look up and report measured inhibition for this entry: N=c1n(CC(=O)c2ccc([N+](=O)[O-])cc2)c2ccccc2n1Cc1ccc(Cl)cc1 99.4

Return inhibition for the following compound: Cc1cc(NC(c2cccnc2)c2ccc3cccnc3c2O)no1 (centres undefined) 94.9

Please report the measured inhibition for O=C(CCl)N1c2ccccc2Sc2ccc3ccccc3c21 99.6

Annotate the compound CC(C)CC(=NNC(=O)c1ccncc1)c1cc(Cl)ccc1O with its measured inhibition. 81.7

Give reported inhibition value for O=C1C(Cl)=C(Nc2ccccc2)C(=O)c2ccccc21 99.8

Tell me its inhibition given Nc1ccc(-c2nc3ccc(C(=O)O)cc3s2)cc1 as the entry. 90.5

Given the compound Cc1csc(NC(=O)c2cn3ccccc3n2)n1 , write its reported inhibition. 99.8

Query inhibition for COCCCNC(=O)c1ccc(Cn2c(=O)c3ccccc3n(Cc3ccccc3C#N)c2=O)cc1 38.4

// Input: O=C(N/N=C\c1c(O)ccc2ccccc12)c1cncc(Br)c1 . Output its inhibition only. 79.5

Name the recorded inhibition of the compound listed here: Cc1cc(Br)ccc1NC(=O)CNC(=O)Cn1ncc(Cl)c(Cl)c1=O 96.9

Please look at this compound and report its inhibition: O=C(O)c1cccc(COc2ccccc2Cl)c1 72.1

Give inhibition for O=C(N/N=C\c1c(O)ccc2ccccc12)c1ccc(Cn2cccn2)o1 41.5

# return recorded inhibition for input COc1ccc(C(=O)CN2C(=O)c3ccccc3S2(=O)=O)cc1 97.6

Provide only the value of recorded inhibition for COC1CC(C)C(OC)c2cc(O)cc(c2O)NC(=O)C(C)=CC=CC(C)C(OC(N)=O)C(C)=CC(C)C1OC (centres undefined) 98.6

Provide one value: measured inhibition of CN1CCC2(CC1)N=C(c1ccc(F)cc1)C(=S)N2C(=O)c1ccc(C(C)(C)C)cc1 68.4

Output inhibition of c1ccc(-c2nc(-c3ccccn3)no2)cc1 98.3

Return value of inhibition for input NS(=O)(=O)c1ccc(CCNc2nn3c(-c4ccc(F)c(Cl)c4)cnc3s2)cc1 , no commentary. 14.8

Tell us which inhibition value is on record for COc1ccc(C(=O)NNC(=O)c2ccccn2)cc1 98.5

Hello, please tell me recorded inhibition for this one: CCn1nc(C)cc1-c1nnc(Sc2ncc([N+](=O)[O-])s2)n1C 98.8

Retrieve inhibition measured for Cc1ccc(-c2cc3c(N=O)c4ccccc4c-3n[nH]2)cc1 and print it. 78.5

Fill in inhibition for record Cc1c([N+](=O)[O-])cc(N2C(=O)C=CC2=O)cc1[N+](=O)[O-] 100

Indicate the recorded inhibition value for this compound: c1cc2c(cc1C1=NNC(=NC3CC3)SC1)OCCO2 91.3

Indicate the recorded inhibition value for this compound: Oc1c(I)cc(Cl)c2cccnc12 85.5

// fetch inhibition given entry CN(C(=O)COC(=O)/C=C/c1cccc([N+](=O)[O-])c1)C1CCS(=O)(=O)C1 (centres undefined) 36.6

Return reported inhibition. Input compound: CCN(CC)S(=O)(=O)c1cccc(C(=O)N/N=C(\C)c2ccc(O)cc2O)c1 47.7

Name the recorded inhibition of the item C=CCc1cccc(/C=N/NC(=O)C(C)Nc2cccc(C)c2)c1O (centres undefined) in your answer. 47.8

Identify the reported inhibition for the following entry. Nc1nonc1-n1nnc(C(=O)N/N=C/c2cc(Br)ccc2O)c1CNc1ccccc1 59.3

State its inhibition: CN(C)c1ccc(/C=C/c2ccc3c4ccccc4ccc3[n+]2-c2ccccc2)cc1 100

Identify inhibition associated with the compound COC(=O)C1C=CC(OC2OC(COC(C)=O)C(OC(C)=O)C(OC(C)=O)C2OC(C)=O)n2c(=O)n(-c3ccccc3)c(=O)n21 (centres undefined) 99.1

Assign inhibition to the following record: O=C(NCCc1ccccc1F)c1ccc2c(c1)OCCO2 99.8
